Test system: ncRNAs (SEQ ID NO 28-89)
Experiment: ncRNA arrays of melanocytes, keratinocytes, normal skin, melanoma cell lines and patient samples
Parameters: species or system human
Conditions: melanoma patient 5 sample compared to normal skin
Measured ncRNA array expression, patient 5, listed per entry.
Format: numeric value only, no unit, no commentary.

I'd like to know its ncRNA array expression, patient 5. The substance in question is SEQ ID NO 51 (ATGTATTTTAGGTAATAAGATTTTTATCAATTGTGTCTTTTTCTTTCTTTGCTTTCTATA; listed as DNA, chemistry not given here; listed as Homo sapiens) 1.042

I'd like to know its ncRNA array expression, patient 5. The substance in question is SEQ ID NO 53 (ATATATTTAGATAGTACTATGTTTCGTTTTCTTCCGATTTCAGGGATCCTTTTGTCTTAC; listed as DNA, chemistry not given here; listed as Homo sapiens) −2.02

I'd like to know its ncRNA array expression, patient 5. The substance in question is SEQ ID NO 28 (CTTAATGTATCTAAGGTTGGCTTAATCCTGTCTAAAATCAAGGTATTGGACTAGAACAAT; DNA, backbone and methylation of C not given here; listed as Homo sapiens) 1.822

I'd like to know its ncRNA array expression, patient 5. The substance in question is SEQ ID NO 36 (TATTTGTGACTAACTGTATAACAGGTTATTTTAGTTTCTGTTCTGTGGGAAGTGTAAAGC; listed as DNA, chemistry not given here; listed as Homo sapiens) 4.05

I'd like to know its ncRNA array expression, patient 5. The substance in question is SEQ ID NO 60 (ACTAACAGCACTGGAGGGTGTAGTGTTTCCTACTTTATGGATGAGTGTACTGTGGGCTTC; listed as DNA, chemistry not given here; listed as Homo sapiens) 0.8655

I'd like to know its ncRNA array expression, patient 5. The substance in question is SEQ ID NO 37 (ACGCACTGGGCGTTGAAGCAGTGCTTTCTGGATTAAATACGAAATACTGATGTCACAAGC; DNA, backbone and methylation of C not given here; listed as Homo sapiens) 2.425

I'd like to know its ncRNA array expression, patient 5. The substance in question is SEQ ID NO 71 (AAAATTCCAAGAGGGCCTTTTCGAATAGACGCATGAACGGTGTTTGTGTCTGGATCGTCC; listed as DNA, chemistry not given here; listed as Homo sapiens) 2.628

I'd like to know its ncRNA array expression, patient 5. The substance in question is SEQ ID NO 31 (TTGCTTTTGTATTTGTAATTTTATGACATTTCGAAGTTTCTGTGTCTTAACTCTTTTTAA; listed as DNA, chemistry not given here; listed as Homo sapiens) 2.368

API: the following record is the query input.
I'd like to know its ncRNA array expression, patient 5. The substance in question is SEQ ID NO 83 (TCAGTTTGATGATTGGGCTAGGGAATGAAGCTTTGCCACTTAGGAGATAAACCCCATAAC; listed as DNA, chemistry not given here; listed as Homo sapiens) −1.156

---

Measured ncRNA array expression, patient 30, listed per entry.
Tested on: ncRNAs (SEQ ID NO 28-89)
Test: ncRNA arrays of melanocytes, keratinocytes, normal skin, melanoma cell lines and patient samples
Design: species or system human
Settings: melanoma patient 30 sample compared to normal skin
Format: numeric value only, no unit, no commentary.

Some substances with recorded ncRNA array expression, patient 30:
I'd like to know its ncRNA array expression, patient 30. The substance in question is SEQ ID NO 70 (AGTTATAGAGGAGGCTCAGGAGGATCTGGGGAAACGGGACCAGAGGGTAAGATGGGTTAT; listed as DNA, chemistry not given here; listed as Homo sapiens) −0.6666

I'd like to know its ncRNA array expression, patient 30. The substance in question is SEQ ID NO 61 (CATACATTGCCCTCACTAATCAATGGACATTTCAGCATTTCATTACTAATTTTGAGAGAA; listed as DNA, chemistry not given here; listed as Homo sapiens) 0.254

I'd like to know its ncRNA array expression, patient 30. The substance in question is SEQ ID NO 80 (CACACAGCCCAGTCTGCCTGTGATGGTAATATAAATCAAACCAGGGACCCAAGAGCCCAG; listed as DNA, chemistry not given here; listed as Homo sapiens) 0.1296

I'd like to know its ncRNA array expression, patient 30. The substance in question is SEQ ID NO 75 (CAAGTGGGAAGAAAAAGAGCCCTACGTGGTGACATTCTGGAAGGATATCATGGATGATTG; listed as DNA, chemistry not given here; listed as Homo sapiens) −1.4645

I'd like to know its ncRNA array expression, patient 30. The substance in question is SEQ ID NO 82 (GAAGTCAGAAACTAAAGTTCCCTTCTAAGACAAAATCCTGCTTTGGAGAAAAAAAAAAAT; listed as DNA, chemistry not given here; listed as Homo sapiens) −2.485

I'd like to know its ncRNA array expression, patient 30. The substance in question is SEQ ID NO 48 (ACTTATATTCAGAGCATGTGGATTGGGACTCTGAAGAACAACTTTATGGTGGACACCTTC; listed as DNA, chemistry not given here; listed as Homo sapiens) −0.334

I'd like to know its ncRNA array expression, patient 30. The substance in question is SEQ ID NO 85 (TGAGGGGAGAGGGGATGGGAAACATTAGGGCTGGGTTCATGTAAAGGGACCAGCATTGTG; listed as DNA, chemistry not given here; listed as Homo sapiens) 0.6346

I'd like to know its ncRNA array expression, patient 30. The substance in question is SEQ ID NO 72 (AATTACATATATTTAGCAGGATTTTTATTTGCCGTGATATATAGGATAATTTAGTCTTTG; listed as DNA, chemistry not given here; listed as Homo sapiens) −1.3285

New cases:
I'd like to know its ncRNA array expression, patient 30. The substance in question is SEQ ID NO 83 (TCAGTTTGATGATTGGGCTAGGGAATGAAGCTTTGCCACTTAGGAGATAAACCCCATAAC; listed as DNA, chemistry not given here; listed as Homo sapiens) −1.73

I'd like to know its ncRNA array expression, patient 30. The substance in question is SEQ ID NO 78 (ATGGAAAGGCCAGGGGAGGGTGGAGCTCAGGAGTGGAAGCACAGGGACTAAGGCCTGAGC; listed as DNA, chemistry not given here; listed as Homo sapiens) 1.597

I'd like to know its ncRNA array expression, patient 30. The substance in question is SEQ ID NO 39 (TGATCCTGTAAATCATGTTTTTGTTTATTCCCCAACACTAACCTCACTCCTTTACTATTC; listed as DNA, chemistry not given here; listed as Homo sapiens) 0.02356

I'd like to know its ncRNA array expression, patient 30. The substance in question is SEQ ID NO 43 (CTTAATCCACATTTGTTTTGAATTTTTCTGATTCCTATAGTACCATACTCTGATGCCTAT; listed as DNA, chemistry not given here; listed as Homo sapiens) −0.1449

I'd like to know its ncRNA array expression, patient 30. The substance in question is SEQ ID NO 59 (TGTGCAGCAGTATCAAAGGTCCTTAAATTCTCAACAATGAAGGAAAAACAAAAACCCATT; listed as DNA, chemistry not given here; listed as Homo sapiens) −1.04

---

Test system: ncRNAs (SEQ ID NO 28-89)
Experiment: ncRNA arrays of melanocytes, keratinocytes, normal skin, melanoma cell lines and patient samples
Parameters: species or system human
Details: melanoma patient 24 sample compared to normal skin
observedProperty: ncRNA array expression, patient 24
Format: numeric value only, no unit, no commentary.

Some substances with recorded ncRNA array expression, patient 24:
I'd like to know its ncRNA array expression, patient 24. The substance in question is SEQ ID NO 78 (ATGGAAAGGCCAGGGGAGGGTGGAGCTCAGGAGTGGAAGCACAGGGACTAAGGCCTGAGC; listed as DNA, chemistry not given here; listed as Homo sapiens) −3.419

I'd like to know its ncRNA array expression, patient 24. The substance in question is SEQ ID NO 52 (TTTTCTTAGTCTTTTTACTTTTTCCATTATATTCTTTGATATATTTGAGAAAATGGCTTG; listed as DNA, chemistry not given here; listed as Homo sapiens) −0.4016

I'd like to know its ncRNA array expression, patient 24. The substance in question is SEQ ID NO 30 (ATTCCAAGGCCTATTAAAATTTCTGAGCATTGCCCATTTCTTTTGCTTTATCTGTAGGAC; DNA, backbone and methylation of C not given here; listed as Homo sapiens) −1.318

API: the following record is the query input.
I'd like to know its ncRNA array expression, patient 24. The substance in question is SEQ ID NO 53 (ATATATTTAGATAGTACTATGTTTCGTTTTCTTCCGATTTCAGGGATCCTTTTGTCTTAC; listed as DNA, chemistry not given here; listed as Homo sapiens) −1.827
